# testName: Cytotoxicity against human hepatoma cells after 3 days by MTS assay
# Format: cell-based
endpoint: CC50 at 72 h (µM)
Answers are plain numbers, in µM.

Record excerpt, results attached:
CCOc1cc2cc(-c3c(C)nc(Nc4ccccc4)nc3N[C@@H]3C[C@H](CO)[C@@H](O)[C@H]3O)oc2c(C)n1	18
CCc1nccc2cc(-c3c(Cl)nc(N)nc3N[C@@H]3C[C@H](CO)[C@@H](O)[C@H]3O)oc12	24

Now let's try a different one.
// query What value of CC50 at 72 h has been recorded for this entry: Cc1cc2cc(-c3c(Cl)nc(N)nc3N[C@@H]3C[C@H](CO)[C@@H](O)[C@H]3O)oc2cn1
// result 25
